As shown below, each of these compounds has a reported log10 IC90 value.
# System: Acinetobacter baumannii ATCC 17978
# PROTOCOL DESCRIPTION: Antimicrobial susceptibility testing: 90% growth inhibitory concentration (IC90) determination
# Assay type: cell-based
# RUN CONDITIONS: Acinetobacter baumannii, ATCC17978, 16 h, 90% growth inhibitory concentration; Acinetobacter baumannii ATCC17978; Iso-Sensitest broth, OD 600 nm over 16h; read-out: ATCC17978 IC90
# Procedure: Antimicrobial Susceptibility Testing: 90% Growth Inhibitory Concentration (IC90) Determination The in vitro antimicrobial activity of the compounds was determined according to the following procedure: The assay used a 10-points Iso-Sensitest broth medium to measure quantitatively the in vitro activity of the compounds against Acinetobacter baumannii ATCC 17978 and Acinetobacter baumannii ATCC 17961. […]
Where a name gives a salt, the structure may show the parent alone.
// stored as log10 of IC90 expressed in µM

Sample answers from the record:
[[record]]
compound = "CCc1cc(Nc2nccn3c(-c4ccc(OC)c(F)c4Cl)cnc23)ccc1C(=O)NCCNC(=O)[C@H](N)CCCNC(=N)N [Example 129, formate]"
measurement_kind = "log10 IC90"
readout_value = -0.60

[[record]]
compound = "CCc1cc(Nc2nccn3c(-c4ccc(OCC#CCOCCN)c(F)c4F)cnc23)ccc1C(=O)NCCCN"
measurement_kind = "log10 IC90"
readout_value = -0.64

[[record]]
compound = "Cc1cc(Nc2nccn3c(-c4ccc(OCC#CCN)cc4)cnc23)ccc1C(=O)N(C)CCC1CCN(C)CC1"
measurement_kind = "log10 IC90"
readout_value = 0.52


Q: Could you tell me which log10 IC90 is on file for "CCc1cc(Nc2nccn3c(-c4ccc(OC)c(F)c4F)cnc23)ccc1C(=O)N[C@@H](C)CNC(=N)C(C)C" ?
Ans: -0.35

Q: Could you tell me which log10 IC90 is on file for CCc1cc(Nc2nccn3c(-c4ccc(OC(F)F)c(F)c4F)cnc23)ccc1C(=O)N[C@@H](C)CNC(=O)C1CCN(CC2CNC2)CC1 (racemic) ?
Ans: -0.59

Q: Could you tell me which log10 IC90 is on file for "COc1ccc(-c2cnc3c(Nc4ccc(C(=O)N[C@@H](C)CNC(=N)C(C)C)c(Cl)c4)nccn23)c(F)c1F" ?
Ans: -0.51

Q: Could you tell me which log10 IC90 is on file for "COc1ccc(-c2cnc3c(Nc4ccc(C(=O)NCCN5CCN(C)CC5)c(C)c4)nccn23)cc1" ?
Ans: -0.33
